Listed below: melting point values for each entry.

Compound: CN1CCN(c2cc(Cl)cc3c2c(=O)n(Cc2ccc(C#N)cc2)c(=O)n3Cc2ccccc2)CC1
melting point: 99 to 105 °C
--
Compound: COc1ccc(C2=CCC(C#N)CC2)c2c1OCCO2 (stereo not given)
melting point: 79 °C
--
Compound: CCCCCCCCCCc1cc(CCCCCCCCCC)cc(N(CC(=O)O)CC(=O)O)c1
melting point: 78 to 81 °C
--
Compound: CCOC(=O)c1cc2c(C)cccc2n1CCNS(=O)(=O)c1ccc(C)cc1
melting point: 92 to 93 °C
--
Compound: Cc1ccc2sc(S(=O)(=O)c3cn[nH]c(=O)c3)cc2c1
melting point: 240 to 242 °C
--
Compound: CCN(C)C(=O)NC(=O)Nc1ccccc1
melting point: 157 to 159 °C
--
Compound: O=C(NCCCCO)c1ccc2c(c1)OCO2
melting point: 95 to 98 °C
--
Compound: N=C(N)c1ccc(-c2ccc(-n3cc(CCC(=O)O)c4ccccc43)nn2)cc1
melting point: 288 to 292 °C
--
Compound: CCCc1cccc2c(/C=C(\C)C(=O)O)cc(OC)c(OCOC)c12
melting point: 67 to 68 °C
--
Compound: CC1(C)C(C=C(Br)Br)C1C(=O)O (stereo not given)
melting point: 116 to 117 °C
--
Compound: Nc1ncnc2c1c(-c1ccc(Oc3ccccc3)cc1)cn2C1CCC2(CC1)OCCO2
melting point: 193 to 194 °C
--
Compound: CCOC(Oc1cc(Cl)cc(Cl)c1)C(=O)NC(C)(C)C (stereo not given)
melting point: 69 to 71 °C
--
Compound: COc1c(C)c(OC(=O)c2c(C)c(C)c(OCCCOc3ccc(C(N)=O)cc3)c(C)c2OC)c(C)c(C)c1C(N)=O
melting point: 284 to 286 °C
--
Compound: COc1ccc(CC(=O)O)c(C)c1OC
melting point: 102 to 104 °C
--
Compound: COc1ccc(-c2nn(Cc3ccccc3)c(=O)cc2-c2ccc(Cl)cc2)cc1
melting point: 165 to 167 °C
--
Compound: CC(=O)c1ccc(O)c(CC#N)c1
melting point: 154 to 168 °C
--
Compound: CCCCC1OC(=O)c2cc(NC(N)=S)ccc21 (stereo not given)
melting point: 183 to 185 °C
--
Compound: CS(=O)(=O)c1ccc(-c2cc(CCCO)nn2CC2CCCCC2)cc1
melting point: 94 to 95 °C
--
Compound: CC(C)(C)Nc1c(NCc2ccc(F)cc2C(F)(F)F)c(=O)c1=O
melting point: 192 to 194 °C
--
Compound: CS(=O)c1ncc2n1-c1ccc(Cl)cc1C(c1ccccc1F)=NC2 (stereo not given)
melting point: 95 to 110 °C
--
Compound: CCCCn1nnnc1-c1c(O)ccc(-c2cccc(C(=O)O)c2)c1O
melting point: 261 to 264 °C
--
Compound: CCOC(=O)c1ccc(NC(=O)C(C)C)c(N)c1
melting point: 147 to 149 °C
--
Compound: O=C(c1ccc(F)cc1)N1CCC[C@H](c2noc([C@@H](O)c3ccccc3)n2)C1
melting point: 168 to 172 °C
--
Compound: CCOC(=O)/C(=N\OC1CCCC1)c1csc(N)n1
melting point: 136 to 138 °C
--
Compound: CC(C)(C)n1nc(-c2ccc(Cl)cc2)c2c(N)c(C#N)cnc21
melting point: 213 to 215 °C
--
Compound: CSc1nc2cc(Cl)c(Cl)cc2n1C
melting point: 110 °C
--
Compound: NC(=O)c1ccnc(-c2cccc3cc(Cc4cccc(C(F)(F)F)c4)sc23)c1
melting point: 177 to 178 °C
--
Compound: CC(C)[C@H](NC(=O)N(C)Cc1csc(C2CCC2)n1)C(=O)N[C@@H](Cc1ccccc1)C[C@H](O)[C@H](Cc1ccccc1)NC(=O)OCc1cncs1
melting point: 74 to 76 °C
--
Compound: N#Cc1cc(Cl)ccc1Oc1cc(N2CCOCC2)c(F)cc1OCc1ccccc1
melting point: 134 to 135 °C
--
Compound: Nc1c(CC(=O)O)cccc1S(=O)(=O)c1ccc(Cl)cc1
melting point: 139 to 141 °C
--
Compound: CC(C)(O)CCNC(=O)c1nn(C2CCCCO2)cc1NC(=O)c1ccccn1 (stereo not given)
melting point: 138 to 139 °C
--
Compound: O=C(NCc1cccc2nc(N[C@@H]3CCc4ccccc43)ccc12)c1ccc(F)cc1
melting point: 145 °C
--
Compound: Cc1c(C(=O)NC(C)(C)CO)cccc1[N+](=O)[O-]
melting point: 144 to 145 °C
--
Compound: CC(C)c1ccccc1-n1c(=O)[nH]c2c(C(N)=O)nc(-c3ccc(-c4nc[nH]n4)cc3)nc21
melting point: 368 °C
--
Compound: O=C1c2cccc(O)c2CCC1CN1CCC(O)(c2ccccc2)CC1 (stereo not given)
melting point: 187 to 189 °C
--
Compound: CN1c2ccccc2CC(=O)c2ccccc21
melting point: 92 to 93 °C
--
Compound: N#Cc1nn(-c2c(Cl)cc(C(F)(F)F)cc2Cl)c(C(=O)C(F)F)c1Cl
melting point: 124 to 125 °C
--
Compound: Cn1c(=O)cnn(-c2cc(Cl)c(C(C#N)c3ccc(Cl)cc3)c(Cl)c2)c1=O (stereo not given)
melting point: 160 °C
--
Compound: COc1cc(-c2cc(=O)c3ccc(OCC(O)CNC(C)(C)C)cc3o2)cc(OC)c1OC (stereo not given)
melting point: 119 to 120 °C
--
Compound: CCOC(=O)c1c(O)n(C)c2cc(-c3ccncc3)ccc2c1=O
melting point: 184 °C
